Examples of compounds with documented log10 solubility follow.
- assay details: Solubility of compound in sodium phosphate buffer at pH 7.4
- Assay type: physicochemical
Give log10 of solubility, with solubility taken in µM.

Use these answered entries as a reference point.
[
  {
    "compound": "O=C(NCc1cc(-c2ccc(F)cc2)no1)NCC12CC3CC(CC(C3)C1)C2",
    "log10 solubility": 1.70
  },
  {
    "compound": "O=C(NCc1cc(-c2ccco2)on1)NCC12CC3CC(CC(C3)C1)C2",
    "log10 solubility": 1.88
  },
  {
    "compound": "Cc1ccc(-c2cc(CNC(=O)NC34CC5CC(C)(CC(C)(C5)C3)C4)no2)cc1",
    "log10 solubility": 2.10
  }
]

"Cc1ccc(-c2cc(CNC(=O)NCC34CC5CC(CC(C5)C3)C4)no2)cc1" yielded log10 solubility of 1.88

Reported log10 solubility of "Cc1cc(CNC(=O)NCC23CC4CC(CC(C4)C2)C3)on1" : 2.65

Consider "CC12CC3CC(C)(C1)CC(NC(=O)NCc1cc(-c4cccc(F)c4)no1)(C3)C2" . Its measured log10 solubility is 1.88

---

- assay details: Metabolic stability in human liver microsomes assessed as compound remaining at 1 uM after 30 mins by LC/MS/MS analysis in presence of NADPH generating system
- Type: ADME
- test parameters: read-out: Stability
measured attribute: remaining at 0.5 h, 1 µM (%)
Record the value in %, omitting the unit from your answer.

Please review the following examples before continuing.
[
  {
    "molecular string": "Cc1ccc(-c2cc(CNC(=O)NCC34CC5CC(CC(C5)C3)C4)no2)cc1",
    "units symbol": "%",
    "result": 0.4
  },
  {
    "molecular string": "Cc1cc(CNC(=O)NCC23CC4CC(CC(C4)C2)C3)on1",
    "units symbol": "%",
    "result": 2.9
  },
  {
    "molecular string": "CC12CC3CC(C)(C1)CC(NC(=O)NCc1cc(-c4cccc(F)c4)no1)(C3)C2",
    "units symbol": "%",
    "result": 0.4
  },
  {
    "molecular string": "Cc1ccc(-c2cc(CNC(=O)NC34CC5CC(C)(CC(C)(C5)C3)C4)no2)cc1",
    "units symbol": "%",
    "result": 0.4
  }
]

Consider the record given below.
Reported remaining at 0.5 h, 1 µM of "COc1ccc(-c2cc(CNC(=O)NCC34CC5CC(CC(C5)C3)C4)no2)cc1" : 0.8

---

- target entity: Bifunctional epoxide hydrolase 2 (Homo sapiens)
- Sequence (P34913 whole entry): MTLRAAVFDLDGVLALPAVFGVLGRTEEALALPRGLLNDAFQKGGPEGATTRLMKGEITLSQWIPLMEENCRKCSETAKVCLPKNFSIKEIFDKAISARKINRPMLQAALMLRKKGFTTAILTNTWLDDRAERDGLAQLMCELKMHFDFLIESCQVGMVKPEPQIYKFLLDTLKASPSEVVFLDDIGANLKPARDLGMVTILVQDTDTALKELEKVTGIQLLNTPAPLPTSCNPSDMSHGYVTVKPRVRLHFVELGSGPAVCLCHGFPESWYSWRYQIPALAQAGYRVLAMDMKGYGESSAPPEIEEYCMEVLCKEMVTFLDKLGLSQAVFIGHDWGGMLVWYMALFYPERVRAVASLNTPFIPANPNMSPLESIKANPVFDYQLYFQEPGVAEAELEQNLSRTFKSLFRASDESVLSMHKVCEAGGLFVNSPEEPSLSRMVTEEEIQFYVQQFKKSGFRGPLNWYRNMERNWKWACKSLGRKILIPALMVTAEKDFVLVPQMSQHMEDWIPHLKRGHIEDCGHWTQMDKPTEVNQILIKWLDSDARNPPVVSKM
- assay details: Inhibition of recombinant human soluble epoxide hydrolase using CMNPC as substrate by kinetic fluorescent assay
The following compounds are listed with their measured pIC50 values.
Scale: negative log10 of molar concentration, which is what pIC50 denotes.

Some entries whose results are on file:
[
  {
    "compound": "CC12CC3CC(C)(C1)CC(NC(=O)NCc1cc(-c4cccc(F)c4)no1)(C3)C2",
    "pIC50": 7.77
  },
  {
    "compound": "Cc1cc(CNC(=O)NC23CC4CC(C)(CC(C)(C4)C2)C3)on1",
    "pIC50": 6.91
  },
  {
    "compound": "COc1ccc(-c2cc(CNC(=O)NC34CC5CC(C)(CC(C)(C5)C3)C4)no2)cc1",
    "pIC50": 7.82
  }
]

The value of pIC50 recorded for "Cc1ccc(-c2cc(CNC(=O)NCC34CC5CC(CC(C5)C3)C4)no2)cc1" when tested on Bifunctional epoxide hydrolase 2 (Homo sapiens) reads 7.81

Tested on Bifunctional epoxide hydrolase 2 (Homo sapiens): "CCc1cc(CNC(=O)NCC23CC4CC(CC(C4)C2)C3)on1" . Observed pIC50: 7.53

Sample "Cc1cc(CNC(=O)NCC23CC4CC(CC(C4)C2)C3)on1" , system: Bifunctional epoxide hydrolase 2 (Homo sapiens). Its pIC50 is 8.17

I looked up "CC(C)c1cc(CN(C)C(=O)NCC23CC4CC(CC(C4)C2)C3)no1" and its pIC50 for Bifunctional epoxide hydrolase 2 (Homo sapiens) was 6.24

Measured on Bifunctional epoxide hydrolase 2 (Homo sapiens), "CC12CC3CC(C)(C1)CC(NC(=O)NCc1cc(-c4ccco4)on1)(C3)C2" has a documented pIC50 of 8.39

Reported pIC50 (Bifunctional epoxide hydrolase 2 (Homo sapiens)) for entry CC(C)c1cc(C2CCCN2C(=O)NCC23CC4CC(CC(C4)C2)C3)no1 (stereo not drawn) is 6.61

Tested system Bifunctional epoxide hydrolase 2 (Homo sapiens); pIC50 recorded for Cc1cc(C2CCCN2C(=O)NCC23CC4CC(CC(C4)C2)C3)on1 (stereo not drawn) was 7.04

The measured pIC50 that "O=C(NCc1cc(-c2ccco2)on1)NCC12CC3CC(CC(C3)C1)C2" showed for Bifunctional epoxide hydrolase 2 (Homo sapiens) is 8.31

Sample Cc1cc(C2CCCN2C(=O)NCC23CC4CC(CC(C4)C2)C3)no1 (stereo not drawn) , system: Bifunctional epoxide hydrolase 2 (Homo sapiens). Its pIC50 is 6.28

Simply: "O=C(NCc1cc(-c2ccc(F)cc2)no1)NCC12CC3CC(CC(C3)C1)C2" , Bifunctional epoxide hydrolase 2 (Homo sapiens), pIC50 = 7.98

Per the reported Bifunctional epoxide hydrolase 2 (Homo sapiens) data, "CC(C)c1cc(CN(C)C(=O)NCC23CC4CC(CC(C4)C2)C3)on1" has pIC50 of 6.72

GET /values?item= "COc1ccc(-c2cc(CNC(=O)NCC34CC5CC(CC(C5)C3)C4)no2)cc1" &system= Bifunctional epoxide hydrolase 2 (Homo sapiens) returns pIC50: 7.89

The compound "Cc1ccc(-c2cc(CNC(=O)NC34CC5CC(C)(CC(C)(C5)C3)C4)no2)cc1" , tested on Bifunctional epoxide hydrolase 2 (Homo sapiens), showed pIC50 of 7.59

Note to self: pIC50 of "CC(C)c1cc(CNC(=O)NCC23CC4CC(CC(C4)C2)C3)on1" with Bifunctional epoxide hydrolase 2 (Homo sapiens) was 7.35

Form field, pIC50 with Bifunctional epoxide hydrolase 2 (Homo sapiens), item "O=C(NCc1cc(-c2cccc(F)c2)no1)NCC12CC3CC(CC(C3)C1)C2" : 7.78
